- experimental-system: N-terminal Xaa-Pro-Lys N-methyltransferase 1 (Homo sapiens) (UniProt Q9BV86)
- Sequence (Q9BV86 whole entry, looked up): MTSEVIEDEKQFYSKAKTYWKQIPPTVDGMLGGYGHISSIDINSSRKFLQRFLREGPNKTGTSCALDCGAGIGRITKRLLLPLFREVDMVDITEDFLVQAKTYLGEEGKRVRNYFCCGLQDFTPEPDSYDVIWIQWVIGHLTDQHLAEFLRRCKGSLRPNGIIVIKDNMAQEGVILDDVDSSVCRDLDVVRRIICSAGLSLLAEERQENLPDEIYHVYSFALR
- measurement-description: qHTS Assay for Inhibitors of N-terminal methyltransferase 1 (NTMT1): MTaseGlo Confirmatory Screen, Round 2
- condition-summary: NTMT1 enzyme, MTase-Glo SAH luminescence; series mostly up to 57.4 µM
Results filed as inconclusive are left out. The source made the active and inactive calls. The call rests on the fitted dose curve; in most records, active means well fitted inhibition curve with a large enough effect; inconclusive means small, poorly fitted or top-dose-only effect; inactive means no such curve, though single readings can be large or run the other way.
Entry note: the call must match one of yes (1) for active, no (0) for inactive

Example results:
[
  {
    "molecule": "C#CCN(C)CCCOc1ccc(Cl)cc1Cl",
    "class-name": "no (0)"
  },
  {
    "molecule": "Nc1ncnc2c1ncn2[C@H]1O[C@@H](CNS(=O)(=O)NC(=O)c2cccc(-c3noc(-c4ccccc4F)n3)c2)[C@H](O)[C@@H]1O",
    "class-name": "yes (1)"
  }
]

Exercise: Identify the outcome logged in this assay for the molecule shown: O=Nc1ccc2oc(=O)ccc2c1
Solution: no (0)

Exercise: What do you get for S=C(S)N1CCCC1 ?
Solution: no (0)

Exercise: What do you get for O=C(O)Cc1ccc(O)c(O)c1 ?
Solution: no (0)

Exercise: What do you get for CC1=C(\C=C/C(C)=C/C=C\C(C)=C\C(=O)O)C(C)(C)CCC1 ?
Solution: no (0)

Exercise: What do you get for COc1cc(CNC(=O)CCCCCCC(C)C)ccc1O ?
Solution: no (0)

Exercise: What do you get for COc1cccc(OC)c1OCCNCC1CSc2ccccc2O1 (centres undefined) ?
Solution: no (0)

Exercise: What do you get for CCCc1cc(C)[nH]c(=O)c1CNC(=O)c1cc(-c2ccc(N3CCN(C(C)C)CC3)nc2)cc2c1cnn2C(C)C ?
Solution: no (0)
